Reference for the values: patent US12559506B2

The reader will find reported Dmax values listed item by item below.
Biological target: G2019S LRRK2 (Homo sapiens, UniProt Q5S007, G2019S)
Construct: expressed in transfected cells; host or cells: HEK293 (ATCC CRL-1573), transient transfection, mammalian expression vector with ubiquitin promoter
Sequence (Q5S007 whole entry G2019S): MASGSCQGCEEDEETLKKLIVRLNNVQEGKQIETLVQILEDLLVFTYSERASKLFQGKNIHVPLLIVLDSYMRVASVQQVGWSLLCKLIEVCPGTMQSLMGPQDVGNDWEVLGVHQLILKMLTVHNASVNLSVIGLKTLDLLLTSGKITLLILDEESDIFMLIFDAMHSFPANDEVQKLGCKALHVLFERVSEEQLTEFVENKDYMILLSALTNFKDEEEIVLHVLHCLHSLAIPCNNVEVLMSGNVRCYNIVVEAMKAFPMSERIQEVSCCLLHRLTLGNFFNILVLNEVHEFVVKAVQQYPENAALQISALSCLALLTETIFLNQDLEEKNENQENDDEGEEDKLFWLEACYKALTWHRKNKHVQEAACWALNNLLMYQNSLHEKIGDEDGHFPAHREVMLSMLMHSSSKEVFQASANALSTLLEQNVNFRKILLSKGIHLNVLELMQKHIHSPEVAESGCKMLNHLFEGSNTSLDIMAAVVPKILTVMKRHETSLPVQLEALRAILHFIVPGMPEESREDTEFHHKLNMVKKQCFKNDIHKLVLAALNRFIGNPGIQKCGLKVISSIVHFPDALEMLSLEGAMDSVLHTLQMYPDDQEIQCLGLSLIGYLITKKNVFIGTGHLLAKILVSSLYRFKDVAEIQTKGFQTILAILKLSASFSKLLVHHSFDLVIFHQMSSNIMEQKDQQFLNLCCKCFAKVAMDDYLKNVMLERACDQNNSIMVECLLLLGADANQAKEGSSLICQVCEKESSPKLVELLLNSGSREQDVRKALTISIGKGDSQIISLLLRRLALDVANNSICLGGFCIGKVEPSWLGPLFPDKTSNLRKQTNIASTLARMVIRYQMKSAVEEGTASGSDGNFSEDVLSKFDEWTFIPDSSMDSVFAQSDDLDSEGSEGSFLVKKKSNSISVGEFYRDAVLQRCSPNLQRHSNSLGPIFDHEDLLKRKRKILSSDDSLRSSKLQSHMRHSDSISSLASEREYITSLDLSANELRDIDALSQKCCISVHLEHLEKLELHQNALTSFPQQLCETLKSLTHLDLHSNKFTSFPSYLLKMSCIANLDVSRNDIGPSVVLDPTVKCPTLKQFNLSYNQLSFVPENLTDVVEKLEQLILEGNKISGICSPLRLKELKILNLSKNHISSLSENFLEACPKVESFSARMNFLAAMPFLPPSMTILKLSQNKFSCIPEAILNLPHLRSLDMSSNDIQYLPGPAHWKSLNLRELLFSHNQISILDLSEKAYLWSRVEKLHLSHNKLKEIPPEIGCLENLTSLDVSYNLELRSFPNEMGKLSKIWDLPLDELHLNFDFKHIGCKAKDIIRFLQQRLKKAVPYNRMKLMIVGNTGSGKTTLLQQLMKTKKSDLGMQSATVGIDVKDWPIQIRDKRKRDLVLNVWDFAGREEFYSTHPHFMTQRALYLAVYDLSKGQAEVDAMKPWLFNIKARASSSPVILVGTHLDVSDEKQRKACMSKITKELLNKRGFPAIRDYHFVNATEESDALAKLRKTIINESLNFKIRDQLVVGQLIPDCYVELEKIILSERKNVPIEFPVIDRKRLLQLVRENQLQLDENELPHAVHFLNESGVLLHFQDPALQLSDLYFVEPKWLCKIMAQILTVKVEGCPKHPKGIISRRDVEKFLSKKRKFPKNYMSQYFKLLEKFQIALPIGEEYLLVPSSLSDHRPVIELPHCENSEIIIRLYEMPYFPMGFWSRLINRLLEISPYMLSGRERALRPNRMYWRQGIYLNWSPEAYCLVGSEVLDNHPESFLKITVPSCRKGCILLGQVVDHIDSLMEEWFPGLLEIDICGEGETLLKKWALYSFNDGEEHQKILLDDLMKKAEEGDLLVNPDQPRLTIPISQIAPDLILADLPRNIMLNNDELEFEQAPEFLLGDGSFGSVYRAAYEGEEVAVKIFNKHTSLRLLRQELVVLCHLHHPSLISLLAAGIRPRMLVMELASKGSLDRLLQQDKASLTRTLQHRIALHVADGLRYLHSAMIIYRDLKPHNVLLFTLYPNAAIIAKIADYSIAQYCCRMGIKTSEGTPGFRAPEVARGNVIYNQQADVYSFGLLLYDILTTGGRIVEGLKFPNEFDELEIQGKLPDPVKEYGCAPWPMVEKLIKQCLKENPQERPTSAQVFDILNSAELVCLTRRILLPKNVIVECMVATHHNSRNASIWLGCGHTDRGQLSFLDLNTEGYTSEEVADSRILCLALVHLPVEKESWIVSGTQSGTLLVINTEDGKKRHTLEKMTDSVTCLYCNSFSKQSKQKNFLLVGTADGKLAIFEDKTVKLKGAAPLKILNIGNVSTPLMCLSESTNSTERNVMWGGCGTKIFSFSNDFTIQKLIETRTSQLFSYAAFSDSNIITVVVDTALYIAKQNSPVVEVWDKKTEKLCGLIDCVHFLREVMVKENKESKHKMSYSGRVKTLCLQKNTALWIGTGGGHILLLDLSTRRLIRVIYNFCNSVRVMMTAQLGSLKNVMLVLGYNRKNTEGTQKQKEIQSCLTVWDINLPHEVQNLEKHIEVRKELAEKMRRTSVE
Experiment: LRRK2 degradation assay, HiBit-tagged G2019S LRRK2 expressed from plasmid in HEK293 cells (Nano-Glo Dual-Luciferase)
Format: cell-based
Settings: HiBit-tagged G2019S LRRK2, HEK293 cells, 24 hours

Field: example entries. Status: answers known.
compound	Dmax
CC1(Oc2ccc3[nH]nc(-c4ccnc(N5CC(CC6CCN(CC7CCN(c8ccc9c(c8)C(=O)N(C8CCC(=O)NC8=O)C9=O)CC7)CC6)C5)c4)c3c2)CC1 (stereo not drawn) [Compound 160]	50 to 70%
C[C@H]1CN(c2cc(-c3n[nH]c4ccc(OC5(C)CC5)cc34)ncn2)CCN1CC1CCN(CCC2CCN(c3ccc4c(c3)C(=O)N(C3CCC(=O)NC3=O)C4=O)CC2)CC1 (stereo partly drawn) [Compound 159]	50 to 70%

[in] Name the recorded Dmax of the compound listed here: CC1(Oc2ccc3n[nH]c(-c4cc(N5CCN(CC6CC7(CCN(CC8CCN(c9ccc%10c(c9)C(=O)N(C9CCC(=O)NC9=O)C%10=O)CC8)CC7)C6)CC5)ncn4)c3c2)CC1 (stereo not drawn) [Compound 177]
[out] 50 to 70%
